biological target: recombinant full-length Pfs48/45 (Plasmodium falciparum 3D7, UniProt Q8I6T1); test: ELISA; conditions: both partners purified
Sequence (Q8I6T1 28-428): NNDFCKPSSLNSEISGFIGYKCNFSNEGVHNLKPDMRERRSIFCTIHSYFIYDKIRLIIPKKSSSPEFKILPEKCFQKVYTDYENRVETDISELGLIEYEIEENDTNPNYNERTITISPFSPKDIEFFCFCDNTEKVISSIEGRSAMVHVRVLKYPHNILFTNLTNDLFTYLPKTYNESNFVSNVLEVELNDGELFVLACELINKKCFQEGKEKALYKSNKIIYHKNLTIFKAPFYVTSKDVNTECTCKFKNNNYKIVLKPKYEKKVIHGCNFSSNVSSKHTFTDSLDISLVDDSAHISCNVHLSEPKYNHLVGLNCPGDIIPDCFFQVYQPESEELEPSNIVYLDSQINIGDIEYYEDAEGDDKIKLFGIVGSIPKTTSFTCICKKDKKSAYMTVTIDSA

>  <Binder>
RUPA-34 (antibody, V domains shown, human IgG1; source: recombinant human IgG1, 293T (Protein A purified) or GenScript) VH: EVQLVESGGGLIQPGGSLRLSCAASGFTVSSNYMSWVRQAPGKGLEWVSVIYSGGSGGSTYYADSVKGRFTISRDNLKNTLYLQMNNLRAEDAAVYYCVRDSRGWGYFDDWGQGTLVTVSS VL: EVVLTQSPGTLSLSPGERATLSCRASQSIRTNYLAWYQQKPGQTPRLLIYGASSRATGIPDRFSGSGSGTDFTLTISRLEPEDFAVYFCQQYQNSPWTFGQGTKVEIK

>  <binding result>
binds

$$$$
>  <Binder>
RUPA-43 (antibody, V domains shown, human IgG1; source: recombinant human IgG1, 293T (Protein A purified) or GenScript) VH: QVLLVQSGAEVKKPGASVKVSCKASGYTFLYHDISWVRQATGQGLEWMGWMNPNTGDTGYAQRFQGRVTMTRDMSISTAYLELGSLSSEDTAVYYCARGVGSYHGSGGWLDPWGQGTLVIVSS VL: QSVLTQPPSVSETPGQRVTISCSGTSSNIGINTVNWYQQLPGTAPKLLIHNDNQRPSGVPDRFAGSKSGSSAALAISGLQSEDEADYYCGTWDDSLKRRVFGGGTKLTVL

>  <binding result>
binds

$$$$
>  <Binder>
RUPA-81 (antibody, V domains shown, human IgG1; source: recombinant human IgG1, 293T (Protein A purified) or GenScript) VH: EVQLVATGGGLIQPGGSLRLSCTASGFNVSRMYMSWVRQAPGKGLEWVSVIYSDSSGGSTYYTDSLKGRFIISRDNSQNTLYLQMNSLRVDDTAIYYCARDVRGWGYLDFWGQGTLVTVSS VL: EIVLTQSPGTLSLSPGERAALSCRASQGVSSSFFAWYQQKPGQAPRLLIYGASSRATGIPDRFSGSGSGTDFTLTISRLEPEDFATYYCQQYGYSPWTFGQGTKVEIK

>  <binding result>
binds

$$$$

Origin of values: paper PMC9942873
